Hey, just so you know, these numbers are from patent US20250296971A1.

Target: GIPR (CHO-K1-hGIPR cells) (Homo sapiens, UniProt P48546)
Construct: host or cells: CHO-K1
Sequence (P48546 22-466): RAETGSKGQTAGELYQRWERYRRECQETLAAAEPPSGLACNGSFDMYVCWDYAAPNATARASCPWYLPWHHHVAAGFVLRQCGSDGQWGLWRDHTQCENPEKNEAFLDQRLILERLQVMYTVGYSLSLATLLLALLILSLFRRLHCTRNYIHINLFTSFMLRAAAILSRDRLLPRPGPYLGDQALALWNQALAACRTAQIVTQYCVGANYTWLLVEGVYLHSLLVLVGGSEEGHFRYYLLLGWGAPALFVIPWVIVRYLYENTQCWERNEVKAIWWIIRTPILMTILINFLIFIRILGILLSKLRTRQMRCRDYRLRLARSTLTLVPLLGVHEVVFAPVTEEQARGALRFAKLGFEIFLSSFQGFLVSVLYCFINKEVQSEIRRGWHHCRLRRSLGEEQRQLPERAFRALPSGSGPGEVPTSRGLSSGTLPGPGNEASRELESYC
Experiment: FACS binding assay
Details: competition with 20 nM GIP-057, 4° C., 1 hour, read-out: pIC50 Category (converted)
*1 amine or outer side, *2 acyl side, *3 side chain or, on linkers, in order; H or OH if unused. Where a SMILES comes first, the peptide text is derived from it. Bridges are numbered along the chain shown (N, C = ends). [ ]: non-standard residue; d: D form. Trp(5-Cl) = N[C@@H](Cc1c[nH]c2ccc(Cl)cc12)C(=O)O; Pyridine(2,6-diCH2) = c1cc(C[*:1])nc(C[*:2])c1; X22 = O=C([C@H](Cc1cccc(Cl)c1Cl)N[*:1])[*:2]; Hyp = O=C(O)[C@@H]1C[C@@H](O)CN1; Thp = NC1(C(=O)O)CCOCC1

compound: CC[C@H](C)[C@@H]1NC(=O)[C@H](CC(C)C)NC(=O)C2(CCOCC2)NC(=O)[C@@H](NC(=O)[C@@H](CC(C)C)NC(=O)[C@H](CCC(=O)O)NC(=O)[C@@H]2C[C@@H](O)CN2C(=O)[C@H](Cc2c[nH]c3ccc(Cl)cc23)NC(=O)[C@H](Cc2cccc(Cl)c2Cl)NC(=O)[C@H](CC(=O)O)NC(C)=O)CSCc2cccc(n2)CSC[C@@H](C(N)=O)NC1=O [GIP-226] (Ac-D[X22][Trp(5-Cl)][Hyp]E[dL]C[Thp]LIC-NH2; linker 7-11 via Pyridine(2,6-diCH2))
IC50: < 10 nM
